Test system: HCC1937
Test: drug sensitivity score (DSS), CellTiter-Glo (DSS (AUC-based score)); higher = stronger drug effect (viability inhibition or cytotoxicity); extreme values may be limits of the assay
Conditions: incubation time: 72 h
Would you mind telling me the reported drug sensitivity score of each entry?

Inquiry: For the molecule Nc1ncnc2c1c(COc1cccc(Cl)c1)nn2C1CCOCC1 , what drug sensitivity score is on record?
Reply text: 0

Inquiry: For the molecule CO[C@H]1C[C@@H]2CC[C@@H](C)[C@@](O)(O2)C(=O)C(=O)N2CCCC[C@H]2C(=O)O[C@H]([C@H](C)C[C@@H]2CC[C@@H](OCCO)[C@H](OC)C2)CC(=O)[C@H](C)/C=C(\C)[C@@H](O)[C@@H](OC)C(=O)[C@H](C)C[C@H](C)/C=C/C=C/C=C/1C [Everolimus] , what drug sensitivity score is on record?
Reply text: 8.95

Inquiry: For the molecule Nc1nc(OCc2cc(Br)cs2)c2[nH]cnc2n1 [Lomeguatrib] , what drug sensitivity score is on record?
Reply text: 0

Inquiry: For the molecule CN1CCN(CCOc2cc(OC3CCOCC3)c3c(Nc4c(Cl)ccc5c4OCO5)ncnc3c2)CC1 [Saracatinib] , what drug sensitivity score is on record?
Reply text: 3.31

Inquiry: For the molecule Cn1c(=O)n(-c2ccc(C(C)(C)C#N)cc2)c2c3cc(-c4cnc5ccccc5c4)ccc3ncc21 [Dactolisib] , what drug sensitivity score is on record?
Reply text: 9.76

###

Test system: MFM-223
Assay: drug sensitivity score (DSS), CellTiter-Glo (DSS (AUC-based score)); higher = stronger drug effect (viability inhibition or cytotoxicity); extreme values may be limits of the assay
Conditions: incubation time: 72 h
Would you mind telling me the reported drug sensitivity score of each entry?
Lab note: write the figure by itself, no unit.

Inquiry: For the molecule O=C1NC(=O)[C@@H](c2cn3c4c(cccc24)CCC3)[C@@H]1c1c[nH]c2ccccc12 [Tivantinib] , what drug sensitivity score is on record?
Reply text: 0

Inquiry: For the molecule Nc1nc(OCc2cc(Br)cs2)c2[nH]cnc2n1 [Lomeguatrib] , what drug sensitivity score is on record?
Reply text: 0

Inquiry: For the molecule CCCCCCCCc1ccc(CCC(N)(CO)CO)cc1 [Fingolimod] , what drug sensitivity score is on record?
Reply text: 1.45

Inquiry: For the molecule c1ccc([C@H]2CN3CCSC3=N2)cc1 [Levamisole] , what drug sensitivity score is on record?
Reply text: 0

###

Test system: MCF-10A
Assay: normalised response (% of control), CellTiter-Glo; higher = more viable cells (100 = DMSO, 0 = benzethonium chloride kill control)
Details: incubation time: 72 h
observable: normalised response (%)
Your answer should be a plain number; it is taken to be in %.

Inquiry: For the molecule CN(C)C[C@@H]1CCn2cc(c3ccccc32)C2=C(C(=O)NC2=O)c2cn(c3ccccc23)CCO1 [Ruboxistaurin] (100 nM) , what normalised response is on record?
Reply text: 89.3

Inquiry: For the molecule CNNCc1ccc(C(=O)NC(C)C)cc1 [Procarbazine] (100 nM) , what normalised response is on record?
Reply text: 109

Inquiry: For the molecule NS(=O)(=O)OC[C@@H]1C[C@@H](n2ccc3c(N[C@H]4CCc5ccccc54)ncnc32)C[C@@H]1O [Pevonedistat] (100 nM) , what normalised response is on record?
Reply text: 113

Inquiry: For the molecule Cn1cncc1[C@@](N)(c1ccc(Cl)cc1)c1ccc2c(c1)c(-c1cccc(Cl)c1)cc(=O)n2C [Tipifarnib] (100 nM) , what normalised response is on record?
Reply text: 83.9

Inquiry: For the molecule C[C@]12CC[C@H](O)CC1=CC[C@@H]1[C@@H]2CC[C@]2(C)C(c3cccnc3)=CC[C@@H]12 [Abiraterone] (50 nM) , what normalised response is on record?
Reply text: 99.8
